Test system: NCI-H226 lung
Assay: NCI-60 one-dose screen, 48 h (100 = growth as untreated, 0 = no growth, -100 = all killed)
Settings: 10 µM unless noted
About 83,000 compounds went through this panel and 20% of them were active in at least one assay; those are over-represented in the sample as a whole.
Rule: growth under 70% gives -1, otherwise 1.

Q: Hi, just wondering whether O=C(N/N=C/c1c(Cl)cccc1Cl)c1ccccc1Nc1ccnc(C(F)(F)F)c1 shows growth of 70% or higher.
Result: -1

Q: Hi, just wondering whether COc1cccc(NC(=O)c2sc3nc4c(cc3c2N)CCCC4)c1 shows growth of 70% or higher.
Result: -1

Q: Hi, just wondering whether COc1ccc(S(=O)(=O)Nc2cc(/C=C\c3cc(OC)c(OC)c(OC)c3)cc(OC)c2OC)cc1OC shows growth of 70% or higher.
Result: -1

Q: Hi, just wondering whether O=C1C2=C(C(=O)c3c(O)ccc(O)c31)N(c1cccnc1)Cc1ccccc1O2 shows growth of 70% or higher.
Result: -1

Q: Hi, just wondering whether Clc1ccc(-c2nc(-c3ccco3)cn3ccnc23)cc1 shows growth of 70% or higher.
Result: -1

Q: Hi, just wondering whether CC(Br)C(OC(=O)c1ccccc1Cl)c1cc2c(cc1Br)OCO2 (stereo not given) shows growth of 70% or higher.
Result: 1

Q: Hi, just wondering whether Cc1ccc(Cn2c(-c3nonc3N)nc3ccccc32)cc1 shows growth of 70% or higher.
Result: 1

Q: Hi, just wondering whether COc1ccc(NC(=O)CSc2nc3ccccc3c(=O)n2Cc2cc(OC)c(OC)c(OC)c2)cc1 shows growth of 70% or higher.
Result: 1

Q: Hi, just wondering whether O=C(CN1CCN(c2cc3c(cc2F)c(=O)c(C(=O)O)cn3C2CC2)CC1)Nc1ccc(C(=O)/C=C/c2ccc(Cl)cc2)cc1 shows growth of 70% or higher.
Result: 1

* * *

System: MALME-3M melanoma
Experiment: NCI-60 one-dose screen, 48 h
Conditions: 10 µM unless noted
The panel holds about 83,000 compounds, 20% with a hit somewhere; the sample as a whole holds those more often. The source made the active and inactive calls. How the source made its calls: active means growth percent below 10; inactive means the rest.
I would appreciate it if you answered using one of these outcomes: T for active, F for inactive

Q: // param item: COc1ccc(S(=O)(=O)NCCNc2nccc(-c3c(-c4ccccc4)nc4sccn34)n2)cc1 ; yields the recorded call
Result: F

Q: // param item: C=C1C(=O)O[C@H]2[C@H]1CC/C(Cn1cc(-c3ccc(N)cc3)nn1)=C\CC[C@@]1(C)O[C@@H]21 ; yields the recorded call
Result: T

Q: // param item: CCCCCc1c(C)[nH]c(/C=c2\[nH]/c(=C3/C=c4ccccc4=N3)cc2OC)c1C ; yields the recorded call
Result: T

Q: // param item: O=C1NCC(c2cc3ccccc3[nH]c2=O)Nc2ccccc21 (stereo not given) ; yields the recorded call
Result: F

Q: // param item: CC1=C(C#N)C(C)(C)C(C#N)=C(C)N1 ; yields the recorded call
Result: F

Q: // param item: Nc1c(C(=O)Nc2ccccc2)sc2nc3c(cc12)CCC3 ; yields the recorded call
Result: F

Q: // param item: CCn1cc(C(=O)O)c(=O)c2cc(F)c(N3CCN(S(=O)(=O)c4ccc(OC)c(OC)c4)CC3)cc21 ; yields the recorded call
Result: F

Q: // param item: Nc1ccc(S(=O)(=O)c2ccc(Cl)cc2)cc1 ; yields the recorded call
Result: F

Q: // param item: Cc1cc(C(=O)O)c(N)c(C)n1 ; yields the recorded call
Result: F

Q: // param item: O=c1oc2cc(OS(=O)(=O)c3ccccc3)c(Cl)cc2c2c1CCCCCC2 ; yields the recorded call
Result: F

* * *

Field: growth. Provide a value for each of the molecules that follow.
Test system: DU-145 prostate
Test: NCI-60 one-dose screen, 48 h (100 = growth as untreated, 0 = no growth, -100 = all killed)
Conditions: 10 µM unless noted
Compounds without any hit were thinned out: in the full panel of roughly 83,000, 20% have a hit.
Hi! Could you send only the number? It should be in %, unit omitted.

Q: State, for DU-145 prostate, measured growth of the molecule listed here: Oc1ccc(Cl)cc1-c1cc(-c2ccc(Cl)cc2)n[nH]1
Result: 78.1

Q: State, for DU-145 prostate, measured growth of the molecule listed here: Cn1c(-c2nonc2NC(=O)c2ccc(F)cc2)nc2ccccc21
Result: 107

Q: State, for DU-145 prostate, measured growth of the molecule listed here: COc1ccc(/C=C\c2cc(OC)c(OC)c(OC)c2)c(NS(=O)(=O)c2ccc(C(C)(C)C)cc2)c1O
Result: -0.37

Q: State, for DU-145 prostate, measured growth of the molecule listed here: O=C(CCC(=O)OC1CCCC1)OC1CCCC1
Result: 102

Q: State, for DU-145 prostate, measured growth of the molecule listed here: Cc1ccnc2nc(C(=O)OCC(=O)Nc3ccc(-c4ccccc4)cc3)nn12
Result: 109

Q: State, for DU-145 prostate, measured growth of the molecule listed here: CCCCOc1nc2c(C)cccc2cc1C1CNC(=O)c2ccccc2N1 (stereo unspecified)
Result: 86

* * *

System: HS 578T breast
Test: NCI-60 one-dose screen, 48 h
Conditions: 10 µM unless noted
About 83,000 compounds went through this panel and 20% of them were active in at least one assay; those are over-represented in the sample as a whole. The source made the active and inactive calls. The calls were made as follows: active = growth percent below 10; inactive = the rest.
I would appreciate it if you answered using one of these outcomes: yes (1) for active, no (0) for inactive

Q: // param item: COc1cc(Cn2c(-c3nonc3N)nc3ccccc32)ccc1C ; yields the recorded call
Result: no (0)

Q: // param item: COC1=CC(c2ccc[nH]2)=N/C1=C\c1[nH]c(C)c(C(=O)CCCCC(=O)Oc2ccc3c(c2)CCC2C3CC[C@]3(C)[C@@H](O)CC[C@@H]23)c1C (stereo not given in full) ; yields the recorded call
Result: no (0)

Q: // param item: Cc1cc(C(=O)O)c(N)c(C)n1 ; yields the recorded call
Result: no (0)

Q: // param item: CC(Br)C(OC(=O)c1ccccc1Cl)c1cc2c(cc1Br)OCO2 (stereo not given) ; yields the recorded call
Result: no (0)

Q: // param item: COC(=O)C(CC(=O)c1ccc(-c2ccccc2)cc1)c1ccccc1 (stereo not given) ; yields the recorded call
Result: no (0)

Q: // param item: O=c1[nH]c(CN2CCN(c3ccccc3F)CC2)nc2sc3c(c12)CCC3 ; yields the recorded call
Result: no (0)

Q: // param item: COc1ccc(Cl)cc1NC(N)=S ; yields the recorded call
Result: no (0)

Q: // param item: C/C(=C\c1csc(C)n1)[C@@H]1C[C@@H]2O[C@]2(C)CCC[C@H](C)[C@H](O)[C@@H](C)C(=O)C(C)(C)[C@@H](O)CC(=O)N1 ; yields the recorded call
Result: yes (1)

Q: // param item: Cc1ccc(Cn2c(-c3cccs3)nc3ccccc32)cc1 ; yields the recorded call
Result: no (0)

Q: // param item: Nc1c(C(=O)Nc2ccccc2)sc2nc3c(cc12)CN(Cc1ccccc1)CC3 ; yields the recorded call
Result: no (0)

* * *

Tested on: 786-0 renal
Experiment: NCI-60 one-dose screen, 48 h
Settings: 10 µM unless noted
This is part of a sample that, as a whole, favours compounds with a hit. Of some 83,000 tested, about 20% had one in any assay. Active and inactive are the calls of the source. Rule for the calls: active = growth percent below 10; inactive = the rest.
I would appreciate it if you answered using one of these outcomes: 1 for active, -1 for inactive

Q: // param item: C=CCn1c(C)nc2ccc(Nc3nc(Nc4ccc(F)cc4)nc4ccccc34)cc21 ; yields the recorded call
Result: -1

Q: // param item: C=C1C(=O)O[C@H]2[C@H]1CC/C(COC(=O)NCCc1cccc(OC)c1)=C\CC[C@@]1(C)O[C@@H]21 ; yields the recorded call
Result: 1

Q: // param item: COc1cc(/C=C2\CCCC3=C2N=C2SC(C)=NN2C3c2cc(OC)c(OC)c(OC)c2)cc(OC)c1OC (stereo not given) ; yields the recorded call
Result: -1

Q: // param item: COc1cc(/C=C/C(=O)c2ccc(NC(=O)CN3CCN(c4cc5c(cc4F)c(=O)c(C(=O)O)cn5C4CC4)CC3)cc2)cc(OC)c1OC ; yields the recorded call
Result: 1

Q: // param item: CCCCCC(=O)OCc1ccccc1 ; yields the recorded call
Result: -1

* * *

Tested on: HOP-62 NSCLC
Test: NCI-60 one-dose screen, 48 h (100 = growth as untreated, 0 = no growth, -100 = all killed)
Details: 10 µM unless noted
About 83,000 compounds went through this panel and 20% of them were active in at least one assay; those are over-represented in the sample as a whole.
ASSAY ENDPOINT: growth (%)
Hi! Could you send only the number? It should be in %, unit omitted.

Q: Give growth for O=C(N/N=C/c1c(Cl)cccc1Cl)c1ccccc1Nc1ccnc(C(F)(F)F)c1
Result: 67.2

Q: Give growth for O=C(NCCc1c[nH]c2ccccc12)C1Cc2ccccc2CN1C(=O)c1ccco1 (centres undefined)
Result: 94.6

Q: Give growth for c1ccn2nnnc2c1
Result: 87

Q: Give growth for COc1ccc(NC(=O)CSc2nc3ccccc3c(=O)n2Cc2cc(OC)c(OC)c(OC)c2)cc1
Result: 91.4

Q: Give growth for CCCCCCOc1ccc(C2(Cl)c3ccccc3N(C)c3ccccc32)cc1
Result: 82.4

Q: Give growth for CN(C)c1ccc(C2CC(c3ccccc3)=NN2/C=C2\SC(=O)NC2=O)cc1 (centres undefined)
Result: 94.5

Q: Give growth for COc1cc(/C=C2\CCCC3=C2N=C2SC(C)=NN2C3c2cc(OC)c(OC)c(OC)c2)cc(OC)c1OC (centres undefined)
Result: -0.72

Q: Give growth for CC(=O)Nc1ccc2c(c1)/C(=C\C=C/c1ccc([N+](C)(C)C)cc1)c1ccccc1-2
Result: 18.4

Q: Give growth for CCCCCCc1nc2c(c(C)nn2-c2ccccc2)c2c1CCCCC2
Result: 91.3

Q: Give growth for O=C(O)C(=Cc1c2ccccc2cc2ccccc12)C(=O)O
Result: 105

Q: Give growth for COc1ccc(C2=NN(c3ccc(S(N)(=O)=O)cc3)C(c3cn(-c4ccccc4)nc3-c3ccc(Cl)cc3)C2)cc1 (centres undefined)
Result: 95.3

Q: Give growth for COc1cc(C(=O)OCCCCCCCCCCC[P+](c2ccccc2)(c2ccccc2)c2ccccc2)ccc1O
Result: -83.8

Q: Give growth for O=c1c2cccc3c(Nc4ccc(F)cc4)ccc(c32)c2nc3ccccc3n12
Result: 87.5

Q: Give growth for CCn1cc(C(=O)O)c(=O)c2cc(F)c(N3CCN(S(=O)(=O)c4c(C)cc(C)cc4C)CC3)cc21
Result: 71.5

Q: Give growth for CC(C)(C)c1cn2cccc(C(=O)N3CCN(CC(=O)Nc4ccc(Cl)cc4C(=O)c4ccccc4Cl)CC3)c2n1
Result: 84.7

Q: Give growth for CCN1C(=O)N[C@H]2[C@@H]3NC(=O)c4ccc(Cl)n4[C@@H]3C[C@]21O
Result: -4.56

Q: Give growth for COc1ccc(/C=C\c2cc(OC)c(OC)c(OC)c2)c(NS(=O)(=O)c2ccc(C(C)(C)C)cc2)c1O
Result: 81.9

Q: Give growth for CCCCCCC[C@@H](O)CC(=O)N[C@H](CCCCN)C(=O)N[C@H](Cc1c[nH]c2ccccc12)C(=O)NC(CCCCN)C(=O)N[C@H](CC(C)C)C(=O)N[C@H](Cc1ccccc1)C(=O)N[C@H](CCCCN)C(=O)N[C@H](CCCCN)C(=O)N[C@H](CC(C)C)C(=O)N1CCCC1C(=O)N[C@H](CCCCN)C(=O)N[C@H](Cc1ccccc1)C(=O)N[C@H](CC(C)C)C(=O)N[C@H](Cc1c[nH]cn1)C(=O)N[C@H](CC(C)C)C(=O)N[C@H](C)C(=O)N[C@H](CCCCN)C(=O)N[C@H](CCCCN)C(=O)N[C@H](Cc1ccccc1)C(=O)O (some centres undefined)
Result: -59

Q: Give growth for COc1ccc([N+](=O)[O-])c(/C=C/C(=O)c2ccccn2)c1
Result: 78.5

Q: Give growth for Nc1c(C(=O)c2ccc(F)cc2)sc2nc3c(cc12)CCCC3
Result: 91.1

Q: Give growth for CCOC(=O)c1ccccc1NC(c1ccccc1)c1ccc2cccnc2c1O (centres undefined)
Result: 16.4

Q: Give growth for C=C1C(=O)O[C@H]2[C@H]1CC/C(COC(=O)NCc1ccc(OC)cc1)=C\CC[C@@]1(C)O[C@@H]21
Result: 67.5

Q: Give growth for COc1ccccc1CNCCCN1C(=O)c2ccc3c4c(ccc(c24)C1=O)C(=O)N(CCCNCCCCNCCCCN)C3=O
Result: 22.2

Q: Give growth for O=C(O)c1cn(C2CC2)c2cc(N3CCN(S(=O)(=O)c4ccc(Cl)c(Cl)c4)CC3)c(F)cc2c1=O
Result: 15.2

Q: Give growth for CN1CCN(CCCOc2ccc3nc(Nc4ccc(C(F)(F)F)c(Cl)c4)ccc3c2)CC1
Result: -21.7

Q: Give growth for CCOC(=O)C(Cc1ccccc1)n1c(O)c(C=Nc2ccc(C(=O)OCCN(CC)CC)cc2)sc1=O (centres undefined)
Result: 103

Q: Give growth for CCN1C(=O)N(CC)C2C1NN=c1s/c(=C3\C(=O)N(C4CCCC4)c4ccccc43)c(=O)n12 (centres undefined)
Result: 8.41

Q: Give growth for COc1cc(OC)c(C(=O)/C=C/c2cccc(C#N)c2)c(OC)c1
Result: -9.93

Q: Give growth for CCCCn1c(=O)c(C2CNC(=O)c3ccccc3N2)cc2ccccc21 (centres undefined)
Result: 91.8

Q: Give growth for CCn1cc(C(=O)O)c(=O)c2cc(F)c(N3CCN(S(=O)(=O)c4ccc(Cl)cc4Cl)CC3)cc21
Result: 19.5

Q: Give growth for CC(C)C[C@H](NC(=O)[C@H](Cc1ccccc1)n1ccc(N2CCCCC2)cc1=O)B(O)O
Result: 13.1

Q: Give growth for CNC(=O)c1cc(Oc2ccc3c(c2)sc2nc(-c4ccc(Cl)cc4)cn23)ccn1
Result: 62.5

Q: Give growth for COc1ccc(C(=O)c2cc(OC)c(OC)c(OC)c2)cc1/C=C/C(=O)c1ccc2c(c1)OCO2
Result: 69.8

Q: Give growth for COc1ccc(OC)c(C(=O)c2oc3ccc(Br)cc3c2N)c1
Result: 33.6
